# System: Plasmodium falciparum NF54 stage IV/V gametocytes
# Method description: % inhibition of gametocyte viability (ATP bioluminescence); higher = more inhibition
# Experimental context: 5 µM; 24 h
Observation type: % inhibition of gametocyte viability

Some entries whose results are on file:
CCC(C)NCC(O)Cn1c2ccc(Cl)cc2c2cc(Cl)ccc21 (stereo not given)    68.2%
CCc1nc2ccc(Cl)cn2c1C(=O)NCc1ccc(N2CCC(c3ccc(OC(F)(F)F)cc3)CC2)cc1    < 0%
CCCCc1ccc(-c2cc(C(=O)O)cc(-c3ccc(Cl)cc3)n2)cc1    < 0%

# returns recorded % inhibition of gametocyte viability (system: Plasmodium falciparum NF54 stage IV/V gametocytes) for O=C(CSc1nnc(Br)n1-c1ccc(C2CC2)c2ccccc12)Nc1ccc(C(=O)O)cc1Cl
< 0%

// query: CCCCCCCc1[nH]c2ccccc2c(=O)c1O
< 0%
